experiment: Viability Counterscreen for Confirmatory qHTS for Inhibitors of ATXN expression; conditions: HEK-293 ATXN2-luc cells viability, CellTiter-Fluor, 24 h; further: nearly all actives have a fitted effect of over 50% in size
Hit rate of the full screen: of about 2,100 compounds, about 260 (12%) were called active. Inconclusive results (about 58%) are left out. The call rests on the fitted dose curve; in most records, active means well fitted cell-killing curve with a large enough effect; inconclusive means small, poorly fitted or top-dose-only effect, or effect the other way; inactive means flat fitted curve, though single readings scatter. The list shows a part of the results.
Labels: TRUE (active), FALSE (inactive)

compound | assigned class
O=c1ccc2ccccc2c2ccccc12 | TRUE
CCCCC(=O)NC(c1ccc(Cl)cc1Cl)c1ccc2cccnc2c1O (centres undefined) | FALSE
O=C1C=C(Nc2ccccc2O)c2ccccc2C1=O | TRUE
Nc1ccn([C@@H]2O[C@H](CO)[C@@H](O)[C@@H]2O)c(=O)n1 | FALSE
OC(c1ccc(Cl)cc1)c1ncc(-c2cccc(C(F)(F)F)c2)[nH]1 (centres undefined) | FALSE
O=[N+]([O-])c1ccccc1S(=O)(=O)Nc1cccc2cccnc12 | TRUE
COc1cc2nc(CN(C)Cc3ccc(SC)cc3)[nH]c(=O)c2cc1OC | FALSE
COc1ccc(-c2csc(NC(=O)c3ccccc3NS(=O)(=O)c3ccc(F)c(F)c3)n2)cc1 | TRUE
O=C(NCCc1ccccc1)c1ccc2nccnc2c1 | FALSE
O=C(c1cc(COc2cccc(C(F)(F)F)c2)on1)N1CCC(c2ccncc2)CC1 | FALSE
COc1cc(C)c(C(=O)CC(=O)c2c(C)cc(OC)cc2C)c(C)c1 | FALSE
Cc1ccc2nc(-c3ccccn3)c(NC3CCCC3)n2c1 | FALSE
O=C(NC(Nc1ncc(S(=O)(=O)c2ccc([N+](=O)[O-])cc2)s1)(C(F)(F)F)C(F)(F)F)c1ccc(Cl)cc1 | TRUE
COC(=O)C(Cc1ccc(O)cc1)NC(=O)C(C)Oc1ccccc1 (centres undefined) | FALSE
Cc1nn(-c2ccccn2)c2c1C(=O)CC(C)(C)C2N=[N+]=[N-] (centres undefined) | FALSE
CCOC(=O)C1CCN(C(=O)c2c(C)oc3c2C(=O)c2ccccc2C3=O)CC1 | TRUE
O=C1C(Cl)=C(N2CCC(C(=O)O)CC2)C(=O)c2ccccc21 | FALSE
COc1ccc(C2CC(c3ccccc3C(F)(F)F)=NN2c2ccc(S(N)(=O)=O)cc2)cc1 (centres undefined) | FALSE
CCC(=O)NC(c1ccc(Cl)cc1Cl)c1ccc2cccnc2c1O (centres undefined) | TRUE
O=C(NC(Nc1nc2ccc([N+](=O)[O-])cc2s1)(C(F)(F)F)C(F)(F)F)c1ccccc1 | TRUE
OC(c1cc(-c2cccc(Cl)c2)nc2ccccc12)C1CCCCN1 (centres undefined) | TRUE
Cc1nn(-c2ccccc2)c(N2CCCC2)c1/C=N/NC(=O)c1cc2ccccc2cc1O | FALSE
Cc1cc(C)c2c(CC(=O)Nc3ccc(Cl)cn3)coc2c1 | FALSE
COC(=O)c1c(NC(=O)/C=C/C(=O)O)sc(C)c1-c1ccc(C(C)C)cc1 | TRUE
NS(=O)(=O)c1ccc(CCNC(=O)COC(=O)/C=C/c2cc(Br)ccc2F)cc1 | FALSE
COc1cc(/C=C2\COC/C(=C\c3cc(OC)c(OC)c(OC)c3)C2=O)cc(OC)c1OC | TRUE
Cn1c(S(=O)(=O)c2ccc([N+](=O)[O-])cc2)nc(Br)c1Br | FALSE
COc1cccc(NC(=O)CSc2nc3ncc(Br)cc3[nH]2)c1 | FALSE
CC(C)=C1SC(N2CCN(c3ccc(C)c(Cl)c3)CC2)=NC1=O | FALSE
COc1ccc(CC(N)c2csc(NC(=O)c3ccccc3OC)n2)cc1 (centres undefined) | FALSE
COc1ccccc1OCCN1CSC(=S)N(C)C1 | TRUE
CCC(=O)NC(c1ccc(C)cc1)c1cc([N+](=O)[O-])c2cccnc2c1O (centres undefined) | TRUE
Cc1ccccc1SCC(=O)N1CCN(c2ccc(C(F)(F)F)cn2)CC1 | FALSE
O=C(NNC(=O)c1csc(-c2cnccc2C(F)(F)F)n1)c1ccc(C(F)(F)F)cc1 | FALSE

Sourced from PubChem BioAssay AID1745850
